Test system: MCF7
Test: Cytotoxicity against human MCF7 cells assessed as reduction in cell viability by SRB assay
Type: functional, cell-based
pIC50: −log10 of the molar value.
Collected pIC50 values appear next to each entry.

>  <compound>
CC(=O)O[C@@H]1CC[C@]2(C)[C@H](CC[C@]3(CNc4cccc(F)c4)O[C@H](C4=CCOC4=O)C[C@H]32)[C@]1(C)COC(c1ccccc1)(c1ccccc1)c1ccccc1

>  <experimental-system>
MCF7

>  <rel>
<

>  <pIC50>
4.30

$$$$
>  <compound>
COc1ccc(NC[C@]23CC[C@@H]4[C@](C)(COC(c5ccccc5)(c5ccccc5)c5ccccc5)[C@H](OC(C)=O)CC[C@@]4(C)[C@@H]2C[C@@H](C2=CCOC2=O)O3)cc1OC

>  <experimental-system>
MCF7

>  <rel>
=

>  <pIC50>
4.64

$$$$
>  <compound>
CC(=O)O[C@@H]1CC[C@]2(C)[C@H](CC[C@]3(CNc4ccc(Br)cc4)O[C@H](C4=CCOC4=O)C[C@H]32)[C@]1(C)CO[Si](C)(C)C(C)(C)C

>  <experimental-system>
MCF7

>  <rel>
=

>  <pIC50>
4.89

$$$$
>  <compound>
C=C1CC[C@@H]2[C@](C)(CO)[C@H](O)CC[C@@]2(C)[C@@H]1C/C=C1/C(=O)OC[C@H]1O [ANDROGRAPHOLIDE]

>  <experimental-system>
MCF7

>  <rel>
=

>  <pIC50>
4.81

$$$$
>  <compound>
CC(=O)O[C@@H]1CC[C@]2(C)[C@H](CC[C@]3(CNc4ccccc4)O[C@H](C4=CCOC4=O)C[C@H]32)[C@]1(C)CO[Si](C(C)C)(C(C)C)C(C)C

>  <experimental-system>
MCF7

>  <rel>
=

>  <pIC50>
5.08

$$$$
